Biological target: (NPNA)3 (Plasmodium falciparum)
Assay: BLI, target on sensor
Endpoint name: pKd
Numbers only, as −log10 of the molar value.

# annotated cases, reported pKd shown
1) AB-007072 (antibody, V domains shown) VH: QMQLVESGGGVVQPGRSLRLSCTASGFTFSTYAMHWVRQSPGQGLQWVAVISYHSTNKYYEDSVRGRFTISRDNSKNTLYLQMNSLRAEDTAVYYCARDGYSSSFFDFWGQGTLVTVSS VL: DIQMTQSPSTLSASVGDRVAITCRASQSISRWLAWYQQQPGKAPKLLMSGASNLESGVPSRFSGSGSGTEFTLTISSLQPDDFATYYCQHYNSYFVTFGQGTKVEIK	9.07
2) AB-007070 (antibody, V domains shown) VH: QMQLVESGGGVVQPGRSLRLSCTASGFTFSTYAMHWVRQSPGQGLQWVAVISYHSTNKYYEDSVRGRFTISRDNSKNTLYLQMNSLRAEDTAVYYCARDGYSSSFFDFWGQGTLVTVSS VL: DIQMTQSPSTLSASVGDRVAITCRASQSISRWLAWYQQQPGKAPKLLMSAASVLESGVPSRFSGSGSGTEFTLTISSLQPDDFATYYCQHYNSYFVTFGQGTKVEIK	9.17
3) AB-007048 (antibody, V domains shown) VH: QMQLVESGGGVVQPGRSLRLSCTASGFTFSTYSMHWVRQSPGQGLQWVAVISYHSTNKYYEDSVRGRFTISRDNSKNTLYLQMNSLRAEDTAVYYCARDGYSSSFFDFWGQGTLVTVSS VL: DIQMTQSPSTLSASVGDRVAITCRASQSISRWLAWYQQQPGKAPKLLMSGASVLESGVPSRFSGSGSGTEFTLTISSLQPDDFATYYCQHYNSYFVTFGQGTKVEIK	8.48
4) AB-007047 (antibody, V domains shown) VH: QMQLVESGGGVVQPGRSLRLSCTASGFTFSNYAMHWVRQSPGQGLQWVAVISYHSTNKYYEDSVRGRFTISRDNSKNTLYLQMNSLRAEDTAVYYCARDGYSSSFFDFWGQGTLVTVSS VL: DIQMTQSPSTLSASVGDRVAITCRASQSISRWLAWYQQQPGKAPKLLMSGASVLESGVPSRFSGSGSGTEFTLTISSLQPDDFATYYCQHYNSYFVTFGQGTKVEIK	9.25

As a next step, examine the binder that follows.
The reported value for AB-007041 (antibody, V domains shown) VH: QMQLVESGGGVVQPGRSLRLSCTASGFTFSDYAMHWVRQSPGQGLQWVAVISYHSTNKYYEDSVRGRFTISRDNSKNTLYLQMNSLRAEDTAVYYCARDGYSSSFFDFWGQGTLVTVSS VL: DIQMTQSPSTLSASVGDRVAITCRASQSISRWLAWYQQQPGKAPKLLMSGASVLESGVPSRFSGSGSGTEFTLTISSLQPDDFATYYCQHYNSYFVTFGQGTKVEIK in terms of pKd is 9.84
